biological target: human CA-IX (Homo sapiens, UniProt Q16790); construct: purchased Acro CA9-H82E3; assay: Surface Plasmon Resonance (SPR) binding kinetics to recombinant human CA-IX (Biacore 8K, single-cycle kinetics, 1:1 binding model); conditions: Chelated Metal: Lu-175; SPR, 25° C., pH 7.4; read-out: CAIX KD
pKd: −log10 of the molar value.
Kindly supply the reported pKd values for the records listed here.

[Q] Can you share its pKd? I mean this compound: CC1(C)CN(C(=O)CCCC(C)(c2ccc(O)cc2)c2ccc(O)cc2)[C@H](C(=O)N[C@@H](CC(=O)N2CCN(C(=O)CN3CCN(CC(=O)O)CCN(CC(=O)O)CCN(CC(=O)O)CC3)C[C@@H]2C(=O)NCCn2cc(C34CC(C(=O)Nc5nnc(S(N)(=O)=O)s5)(C3)C4)nn2)C(=O)O)CO1.[Lu+3]
[A] > 9.00

[Q] Can you share its pKd? I mean this compound: NS(=O)(=O)c1nnc(NC(=O)C23CC(c4cn(C[C@H]5CN(C(=O)CN6CCN(CC(=O)O)CCN(CC(=O)O)CCN(CC(=O)O)CC6)CCN5C(=O)[C@@H]5COCCN5C(=O)CCc5n[nH]c6ccccc56)nn4)(C2)C3)s1.[Lu+3]
[A] 8.60 to 9.00

[Q] Can you share its pKd? I mean this compound: NS(=O)(=O)c1nnc(NC(=O)C23CC(c4cn(CCNC(=O)[C@@H]5CN(C(=O)CN6CCN(CC(=O)O)CCN(CC(=O)O)CCN(CC(=O)O)CC6)CCN5C(=O)C[C@H](NC(=O)C[C@H](NC(=O)c5ccc(C6CC6)nn5)C(=O)O)C(=O)O)nn4)(C2)C3)s1.[Lu+3]
[A] > 9.00

[Q] Can you share its pKd? I mean this compound: CC1(c2ccc(C(=O)N[C@@H](CC(=O)N[C@@H](CC(=O)N3CCN(C(=O)CN4CCN(CC(=O)O)CCN(CC(=O)O)CCN(CC(=O)O)CC4)C[C@H]3C(=O)NCCn3cc(C45CC(C(=O)Nc6nnc(S(N)(=O)=O)s6)(C4)C5)nn3)C(=O)O)C(=O)O)cc2)CC1.[Lu+3]
[A] 8.60 to 9.00

[Q] Can you share its pKd? I mean this compound: CC(CCC(=O)N[C@@H](CC(=O)N[C@@H](CC(=O)N1CCN(C(=O)CN2CCN(CC(=O)O)CCN(CC(=O)O)CCN(CC(=O)O)CC2)C[C@H]1C(=O)NCCn1cc(C23CC(C(=O)Nc4nnc(S(N)(=O)=O)s4)(C2)C3)nn1)C(=O)O)C(=O)O)(c1ccccc1)c1ccc(O)cc1.[Lu+3] (stereo partly shown)
[A] 8.60 to 9.00

[Q] Can you share its pKd? I mean this compound: NS(=O)(=O)c1nnc(NC(=O)C23CCC(c4cn(CCNC(=O)[C@@H]5CN(C(=O)CN6CCN(CC(=O)O)CCN(CC(=O)O)CCN(CC(=O)O)CC6)CCN5C(=O)CC[C@H](NC(=O)C[C@H](NC(=O)c5coc(C(F)(F)F)n5)C(=O)O)C(=O)O)nn4)(CC2)CC3)s1.[Lu+3]
[A] > 9.00

[Q] Can you share its pKd? I mean this compound: CC(CCC(=O)N[C@@H](CC(=O)N[C@@H](CCC(=O)NC1(C(=O)NCCOCCOCCNC(=O)CN2CCN(CC(=O)O)CCN(CC(=O)O)CCN(CC(=O)O)CC2)CN(C(=O)Cn2cc(CCCC(=O)Nc3nnc(S(N)(=O)=O)s3)nn2)C1)C(=O)O)C(=O)O)(c1ccc(O)cc1)c1ccc(O)cc1.[Lu+3]
[A] 8.60 to 9.00
